assay: Solubility of artemisone in organic solvents, excipients and SMEDDS (HPLC); format: physicochemical; conditions: oil or lipid, thermodynamic from solid, in Polysorb ID 46, 25 °C
QUANTITY_KIND: solubility at 24 h (mg/mL)
// units = mg/mL; emit number, no label

Ask | Which solubility at 24 h is listed for C[C@H]1[C@H](N2CCS(=O)(=O)CC2)O[C@@H]2O[C@@]3(C)CC[C@H]4[C@H](C)CC[C@@H]1[C@@]24OO3 ?
Reply | 55

---

test: Solubility of artemisone in organic solvents, excipients and SMEDDS (HPLC); assay type: physicochemical; conditions: organic solvent or mixture, thermodynamic from solid, in dichloromethane, 25 °C
QUANTITY_KIND: solubility at 24 h

Ask | Param item = C[C@H]1[C@H](N2CCS(=O)(=O)CC2)O[C@@H]2O[C@@]3(C)CC[C@H]4[C@H](C)CC[C@@H]1[C@@]24OO3 ; retrieve measured solubility at 24 h.
Reply | > 100 mg/mL

---

experiment: Solubility of artemisone in organic solvents, excipients and SMEDDS (HPLC); format: physicochemical; conditions: oil or lipid, thermodynamic from solid, in medium chain mono- and diglycerides (Capmul MCM), 25 °C
QUANTITY_KIND: solubility at 24 h

Ask | Item under review: C[C@H]1[C@H](N2CCS(=O)(=O)CC2)O[C@@H]2O[C@@]3(C)CC[C@H]4[C@H](C)CC[C@@H]1[C@@]24OO3 . Reported solubility at 24 h?
Reply | 62.5 mg/mL

---

assay: Solubility of artemisone in organic solvents, excipients and SMEDDS (HPLC); type: physicochemical; conditions: oil or lipid, thermodynamic from solid, in medium chain triglycerides (MCT), 25 °C
QUANTITY_KIND: solubility at 24 h (mg/mL)
Record the value in mg/mL, omitting the unit from your answer.

Ask | So what does the record say about solubility at 24 h for C[C@H]1[C@H](N2CCS(=O)(=O)CC2)O[C@@H]2O[C@@]3(C)CC[C@H]4[C@H](C)CC[C@@H]1[C@@]24OO3 [artemisone] ?
Reply | 22.5

---

assay: Solubility of artemisone in organic solvents, excipients and SMEDDS (HPLC); type: physicochemical; details: organic solvent or mixture, thermodynamic from solid, in DMSO, 25 °C
QUANTITY_KIND: solubility at 24 h

Ask | Query: solubility at 24 h; subject: C[C@H]1[C@H](N2CCS(=O)(=O)CC2)O[C@@H]2O[C@@]3(C)CC[C@H]4[C@H](C)CC[C@@H]1[C@@]24OO3
Reply | > 100 mg/mL

---

test: Solubility of artemisone in organic solvents, excipients and SMEDDS (HPLC); format: physicochemical; details: organic solvent or mixture, thermodynamic from solid, in methanol, 25 °C
QUANTITY_KIND: solubility at 24 h (mg/mL)
Numbers only here, please. The scale is mg/mL.

Ask | Find the recorded solubility at 24 h belonging to C[C@H]1[C@H](N2CCS(=O)(=O)CC2)O[C@@H]2O[C@@]3(C)CC[C@H]4[C@H](C)CC[C@@H]1[C@@]24OO3 and report it.
Reply | 50

---

test: Solubility of artemisone in organic solvents, excipients and SMEDDS (HPLC); type: physicochemical; settings: organic solvent or mixture, thermodynamic from solid, in acetone, 25 °C
QUANTITY_KIND: solubility at 24 h

Ask | Endpoint output: solubility at 24 h of C[C@H]1[C@H](N2CCS(=O)(=O)CC2)O[C@@H]2O[C@@]3(C)CC[C@H]4[C@H](C)CC[C@@H]1[C@@]24OO3 . Value?
Reply | > 100 mg/mL
